assay.target: Human immunodeficiency virus type 1 reverse transcriptase (Human immunodeficiency virus 1, UniProt Q72547)
recorded.endpoint: pKi
# pKi = -log10(concentration in molar units)

Please supply the value of reported pKi for the item Cc1cc(C)nc(N2C(=O)CSC2C23CC4CC(CC(C4)C2)C3)c1 (racemic) 4.92

---

Test system: CCRF-CEM
measurement.protocol: Cytotoxicity against HIV-infected human CEM cells
Assay type: cell-based
test.parameters: ccrf-cem
What CC50 was measured for each of the following?

Give CC50 for O=C1CSC(CC23CC4CC(CC(C4)C2)C3)N1CCN1CCCC1 (stereo not drawn) 77 µM

// Input: Cc1ccnc2c1NC(=O)c1cccnc1N2C1CC1 [NEVIRAPINE] . Output its CC50 only. > 50 µM

Dear colleague, please send me the reported CC50 for Cc1cc(Cl)nc(N2C(=O)CSC2C23CC4CC(CC(C4)C2)C3)n1 (stereo not drawn) when you can. > 275 µM

Look up and state reported CC50 for COc1cc(C2SCC(=O)N2CC23CC4CC(CC(C4)C2)C3)cc(OC)c1OC (stereo not drawn) 18 µM

Provide measured CC50 value, entry: Cc1ccnc(N2C(=O)CSC2CC23CC4CC(CC(C4)C2)C3)n1 (stereo not drawn) 27.3 µM

Given the compound Cc1ccnc(N2C(=O)CSC2CC23CC4CC(CC(C4)C2)C3)c1 (stereo not drawn) , write its reported CC50. 29.3 µM

Consider the compound O=C1CSC(c2c(Cl)cccc2Cl)N1CC12CC3CC(CC(C3)C1)C2 (stereo not drawn) . State its measured CC50. 21.1 µM

In one line, give reported CC50 of the entry Cc1ccnc(N2C(=O)CSC2C23CC4CC(CC(C4)C2)C3)n1 (stereo not drawn) . 136 µM

Look up and report measured CC50 for this entry: Cc1cc(C)nc(N2C(=O)CSC2C23CC4CC(CC(C4)C2)C3)n1 (stereo not drawn) 122 µM

Tell me CC50 reported for CN(C)CCN1C(=O)CSC1CC12CC3CC(CC(C3)C1)C2 (stereo not drawn) 77 µM

Answer with the recorded CC50 of Cc1cc(C)nc(N2C(=O)CSC2CC23CC4CC(CC(C4)C2)C3)c1 (stereo not drawn) only. 115 µM

Answer with the recorded CC50 of COc1cc(C2SCC(=O)N2CCC23CC4CC(CC(C4)C2)C3)cc(OC)c1OC (stereo not drawn) only. 11.3 µM

Output measured CC50 for this item: Cc1cc(N2C(=O)CSC2CC23CC4CC(CC(C4)C2)C3)nc(C)n1 (stereo not drawn) 22.1 µM

For Cc1cc(Cl)nc(N2C(=O)CSC2CC23CC4CC(CC(C4)C2)C3)n1 (stereo not drawn) , write its CC50. 102 µM

Complete the entry with CC50 for O=C1CSC(c2c(F)cccc2Cl)N1CC12CC3CC(CC(C3)C1)C2 (stereo not drawn) 20.2 µM

Supply CC50 value. Item: O=c1[nH]cnc2c1ncn2[C@H]1CC[C@@H](CO)O1 [DIDANOSINE] > 250 µM

Answer with the recorded CC50 of Cc1cccc(N2C(=O)CSC2CC23CC4CC(CC(C4)C2)C3)n1 (stereo not drawn) only. 35 µM

State, in one line, measured CC50 of Cc1cc(C)nc(N2C(=O)CSC2CC23CC4CC(CC(C4)C2)C3)n1 (stereo not drawn) 27 µM

Dear colleague, please send me the reported CC50 for O=C1CSC(c2c(Cl)cccc2Cl)N1CCC12CC3CC(CC(C3)C1)C2 (stereo not drawn) when you can. 19 µM

Supply CC50 value. Item: O=C1CSC(c2c(F)cccc2Cl)N1CCC12CC3CC(CC(C3)C1)C2 (stereo not drawn) 18.5 µM

Identify the reported CC50 for the following entry. Cc1cc(N2C(=O)CSC2C23CC4CC(CC(C4)C2)C3)nc(C)n1 (stereo not drawn) 94 µM

Give recorded CC50. O=C1CSC(c2c(F)cccc2F)N1CCC12CC3CC(CC(C3)C1)C2 (stereo not drawn) 7.9 µM

Provide only the value of recorded CC50 for O=C1CSC(c2c(F)cccc2F)N1CC12CC3CC(CC(C3)C1)C2 (stereo not drawn) > 275 µM
